Source listed as paper PMC12716022.

experiment: MTT in vitro cytotoxicity assay, normal MCF‐10A; assay type: cell-based; conditions: MCF-10A normal mammary cells, 72 h treatment, normal human breast cells, mean ± SD

{"Compound": "O=C(CNc1ccc(C(=O)O)cc1Cl)NN=Cc1ccc(O)cc1 [Compound A3bn]", "Output unit": "µM", "IC50 at 72 h": 315}

---

Listed compounds paired with reported pIC50
test system: K562; experiment: MTT in vitro cytotoxicity assay, K562; type: cell-based; conditions: Homo sapiens, 72 h treatment, mean ± SD of three experiments in triplicates
pIC50: −log10 of the molar value.

{"Compound": "O=C(CNc1ccc(C(=O)O)cc1Cl)NNC(=S)Nc1ccc(Cl)cc1 [Compound A5an]", "pIC50": 4.16}
{"Compound": "O=C(O)c1ccc(NCc2nnc(SCC(=O)c3ccc(Br)cc3)o2)c(Cl)c1 [Compound A4cn]", "pIC50": 3.88}
{"Compound": "O=C(CNc1ccc(C(=O)O)cc1Cl)NNC(=S)Nc1ccc(Br)cc1 [Compound A5bn]", "pIC50": 4.44}
{"Compound": "O=C(CCCCCCC(=O)Nc1ccccc1)NO [SAHA, vorinostat]", "pIC50": 4.44}
{"Compound": "O=C(CNc1ccc(C(=O)O)cc1Cl)NNC(=S)Nc1ccccc1 [Compound A5cn]", "pIC50": 4.19}
{"Compound": "O=C(CNc1ccc(C(=O)O)cc1Cl)NN=Cc1ccc(Cl)cc1 [Compound A3an]", "pIC50": 4.05}
{"Compound": "O=C(CNc1ccc(C(=O)O)cc1Cl)NN=Cc1ccc(O)cc1 [Compound A3bn]", "pIC50": 4.38}
{"Compound": "Cc1ccc(C(=O)CSc2nnc(CNc3ccc(C(=O)O)cc3Cl)o2)cc1 [Compound A4dn]", "pIC50": 3.96}
{"Compound": "O=C(O)c1ccc(NCc2nnc(SCC(=O)c3ccc([N+](=O)[O-])cc3)o2)c(Cl)c1 [Compound A4an]", "pIC50": 3.91}
{"Compound": "O=C(O)c1ccc(NCc2n[nH]c(=S)o2)c(Cl)c1 [Compound A4]", "pIC50": 3.93}
{"Compound": "O=C(O)c1ccc(NCc2nnc(SCC(=O)c3ccc(Cl)cc3)o2)c(Cl)c1 [Compound A4bn]", "pIC50": 4.09}
